assay: Pharmacokinetic study after intravenous injection; details: male, Wistar, rat, plasma, iv, 10 mg/kg
assay.endpoint: AUC (ng·h/mL)
Could you give me the number in ng·h/mL? Just the number is fine.

The recorded AUC for C=C(C)[C@@H]1CC[C@]2(C(=O)O)CC[C@]3(C)[C@H](CC[C@@H]4[C@@]5(C)CC[C@H](O)C(C)(C)[C@@H]5CC[C@]43C)[C@@H]12 [Betulinic Acid (II), 33-hydroxy-lup-20(29)-en-28-oic acid, reference compound] is 13900

###

test system: HBL100; test: three day MTT cytotoxicity assay, HBL100; format: cell-based, human; conditions: HBL100, 72 hours, MTT
Assignment: determine reported IC50 for cell lines HBL100 for the given compounds.

Known value: HBL100 IC50 for cell lines HBL100 of the compound C=C(C)[C@@H]1CC[C@]2(C(=O)O)CC[C@]3(C)C(CCC4[C@@]5(C)Cc6c(oc7ccccc67)C(C)(C)C5CC[C@]43C)C12 (some centres unmarked) equals >20 µg/mL

Known value: HBL100 IC50 for cell lines HBL100 of the compound C=C(C)[C@@H]1CC[C@]2(C(=O)O)CC[C@]3(C)C(CCC4[C@@]5(C)Cc6c([nH]c7cc(Cl)cc(Cl)c67)C(C)(C)C5CC[C@]43C)C12 (some centres unmarked) equals >20 µg/mL

Known value: HBL100 IC50 for cell lines HBL100 of the compound C#CCNC(=O)[C@]12CC[C@@H](C(=C)C)C1C1CCC3[C@@]4(C)Cc5c([nH]c6ccc(Cl)cc56)C(C)(C)C4CC[C@@]3(C)[C@]1(C)CC2 (some centres unmarked) equals >20 µg/mL

Known value: HBL100 IC50 for cell lines HBL100 of the compound CC(C)[C@@H]1CC[C@]2(C(=O)OCc3ccccc3)CC[C@]3(C)C(CCC4[C@@]5(C)Cc6c([nH]c7ccccc67)C(C)(C)C5CC[C@]43C)C12 (some centres unmarked) equals >20 µg/mL

Known value: HBL100 IC50 for cell lines HBL100 of the compound "CC(C)[C@@H]1CC[C@]2(C(=O)O)CC[C@]3(C)[C@H](CC[C@@H]4[C@@]5(C)Cc6c(oc7ccccc67)C(C)(C)[C@@H]5CC[C@]43C)[C@@H]12" equals >20 µg/mL

Known value: HBL100 IC50 for cell lines HBL100 of the compound CC(C)[C@@H]1CC[C@]2(C(=O)O)CC[C@]3(C)C(CCC4[C@@]5(C)Cc6c([nH]c7ccccc67)C(C)(C)C5CC[C@]43C)C12 (some centres unmarked) equals >20 µg/mL

Known value: HBL100 IC50 for cell lines HBL100 of the compound C=C(C)[C@@H]1CC[C@]2(C(=O)OCc3ccccc3)CC[C@]3(C)C(CCC4[C@@]5(C)Cc6c([nH]c7ccc(Cl)cc67)C(C)(C)C5CC[C@]43C)C12 (some centres unmarked) equals >20 µg/mL

Known value: HBL100 IC50 for cell lines HBL100 of the compound C=C(C)[C@@H]1CC[C@]2(C(=O)Nc3ccccn3)CC[C@]3(C)C(CCC4[C@@]5(C)Cc6c([nH]c7ccc(Cl)cc67)C(C)(C)C5CC[C@]43C)C12 (some centres unmarked) equals >20 µg/mL

Known value: HBL100 IC50 for cell lines HBL100 of the compound C=C(C)[C@@H]1CC[C@]2(C(=O)OCc3ccccc3)CC[C@]3(C)C(CCC4[C@@]5(C)Cc6c([nH]c7ccccc67)C(C)(C)C5CC[C@]43C)C12 (some centres unmarked) equals >20 µg/mL

Known value: HBL100 IC50 for cell lines HBL100 of the compound CC(C)[C@@H]1CC[C@]2(C(=O)O)CC[C@]3(C)C(CCC4[C@@]5(C)Cc6c(n(C)c7ccccc67)C(C)(C)C5CC[C@]43C)C12 (some centres unmarked) equals 14.14 ± 0.8 µg/mL

Known value: HBL100 IC50 for cell lines HBL100 of the compound "C=C(C)[C@@H]1CC[C@]2(C(=O)O)CC[C@]3(C)[C@H](CC[C@@H]4[C@@]5(C)Cc6c([nH]c7c(Cl)cccc67)C(C)(C)[C@@H]5CC[C@]43C)[C@@H]12" equals 11.8 ± 0.35 µg/mL

Known value: HBL100 IC50 for cell lines HBL100 of the compound "C=C(C)[C@@H]1CC[C@]2(C(=O)O)CC[C@]3(C)[C@H](CC[C@@H]4[C@@]5(C)Cc6c([nH]c7ccc(OC)cc67)C(C)(C)[C@@H]5CC[C@]43C)[C@@H]12" equals 12.8 ± 0.39 µg/mL

Known value: HBL100 IC50 for cell lines HBL100 of the compound C=CCOC(=O)[C@]12CC[C@@H](C(=C)C)C1C1CCC3[C@@]4(C)Cc5c([nH]c6ccccc56)C(C)(C)C4CC[C@@]3(C)[C@]1(C)CC2 (some centres unmarked) equals >20 µg/mL

Known value: HBL100 IC50 for cell lines HBL100 of the compound "C=C(C)[C@@H]1CC[C@]2(C(=O)O)CC[C@]3(C)[C@H](CC[C@@H]4[C@@]5(C)Cc6c([nH]c7ccccc67)C(C)(C)[C@@H]5CC[C@]43C)[C@@H]12" equals 10.3 ± 0.9 µg/mL

Known value: HBL100 IC50 for cell lines HBL100 of the compound C=C(C)[C@@H]1CC[C@]2(C(=O)Nc3nccs3)CC[C@]3(C)C(CCC4[C@@]5(C)Cc6c([nH]c7ccc(Cl)cc67)C(C)(C)C5CC[C@]43C)C12 (some centres unmarked) equals >20 µg/mL

Known value: HBL100 IC50 for cell lines HBL100 of the compound "CC(C)[C@@H]1CC[C@]2(C(=O)O)CC[C@]3(C)[C@H](CC[C@@H]4[C@@]5(C)Cc6c([nH]c7ccc(F)cc67)C(C)(C)[C@@H]5CC[C@]43C)[C@@H]12" equals >20 µg/mL

Known value: HBL100 IC50 for cell lines HBL100 of the compound "C=C(C)[C@@H]1CC[C@]2(C(=O)O)CC[C@]3(C)[C@H](CC[C@@H]4[C@@]5(C)Cc6c([nH]c7ccc(F)cc67)C(C)(C)[C@@H]5CC[C@]43C)[C@@H]12" equals >20 µg/mL

Known value: HBL100 IC50 for cell lines HBL100 of the compound C=C(C)[C@@H]1CC[C@]2(C(=O)O)CC[C@]3(C)C(CCC4[C@@]5(C)Cc6c(n(C)c7ccccc67)C(C)(C)C5CC[C@]43C)C12 (some centres unmarked) equals 19.5 ± 2.1 µg/mL

Known value: HBL100 IC50 for cell lines HBL100 of the compound C=C(C)[C@@H]1CC[C@]2(C(=O)O)CC[C@]3(C)C(CCC4[C@@]5(C)Cc6c([nH]c7ccc(Cl)cc67)C(C)(C)C5CC[C@]43C)C12 (some centres unmarked) equals 11.75 ± 1.65 µg/mL

Known value: HBL100 IC50 for cell lines HBL100 of the compound C=C(C)[C@@H]1CC[C@]2(C(=O)NC3CC3)CC[C@]3(C)C(CCC4[C@@]5(C)Cc6c([nH]c7ccc(Cl)cc67)C(C)(C)C5CC[C@]43C)C12 (some centres unmarked) equals >20 µg/mL

Known value: HBL100 IC50 for cell lines HBL100 of the compound "C=C(C)[C@@H]1CC[C@]2(C(=O)NCC(=O)O)CC[C@]3(C)[C@H](CC[C@@H]4[C@@]5(C)Cc6c([nH]c7ccccc67)C(C)(C)[C@@H]5CC[C@]43C)[C@@H]12" equals >20 µg/mL

Known value: HBL100 IC50 for cell lines HBL100 of the compound C=C(C)[C@@H]1CC[C@]2(C(=O)NCC(=O)O)CC[C@]3(C)C(CCC4[C@@]5(C)Cc6c([nH]c7ccc(Cl)cc67)C(C)(C)C5CC[C@]43C)C12 (some centres unmarked) equals 16.5 ± 0.6 µg/mL

Known value: HBL100 IC50 for cell lines HBL100 of the compound "CC(C)[C@@H]1CC[C@]2(C(=O)O)CC[C@]3(C)[C@H](CC[C@@H]4[C@@]5(C)Cc6c([nH]c7ccc(Cl)cc67)C(C)(C)[C@@H]5CC[C@]43C)[C@@H]12" equals >20 µg/mL

###

system: A549; assay: three day MTT cytotoxicity assay, A549; type: cell-based, human; settings: ratio of IC50 of NIH 3T3 cells to A549
Simple rule here: Specific Index (SI) for cell lines A549 less than 2 is TRUE, otherwise FALSE.

Inquiry: Given the entry C=C(C)[C@@H]1CC[C@]2(C(=O)O)CC[C@]3(C)C(CCC4[C@@]5(C)Cc6c(n(C)c7ccccc67)C(C)(C)C5CC[C@]43C)C12 (stereo partly shown) , would its reported Specific Index (SI) for cell lines A549 be below 2?
Reply text: FALSE

Inquiry: Given the entry CC(C)[C@@H]1CC[C@]2(C(=O)O)CC[C@]3(C)C(CCC4[C@@]5(C)Cc6c(n(C)c7ccccc67)C(C)(C)C5CC[C@]43C)C12 (stereo partly shown) , would its reported Specific Index (SI) for cell lines A549 be below 2?
Reply text: FALSE

Inquiry: Given the entry "CC(C)[C@@H]1CC[C@]2(C(=O)O)CC[C@]3(C)[C@H](CC[C@@H]4[C@@]5(C)Cc6c([nH]c7ccc(Cl)cc67)C(C)(C)[C@@H]5CC[C@]43C)[C@@H]12" , would its reported Specific Index (SI) for cell lines A549 be below 2?
Reply text: FALSE

Inquiry: Given the entry "CC(C)[C@@H]1CC[C@]2(C(=O)O)CC[C@]3(C)[C@H](CC[C@@H]4[C@@]5(C)Cc6c([nH]c7ccc(F)cc67)C(C)(C)[C@@H]5CC[C@]43C)[C@@H]12" , would its reported Specific Index (SI) for cell lines A549 be below 2?
Reply text: TRUE

Inquiry: Given the entry C=C(C)[C@@H]1CC[C@]2(C(=O)O)CC[C@]3(C)C(CCC4[C@@]5(C)Cc6c(oc7ccccc67)C(C)(C)C5CC[C@]43C)C12 (stereo partly shown) , would its reported Specific Index (SI) for cell lines A549 be below 2?
Reply text: TRUE

Inquiry: Given the entry C=C(C)[C@@H]1CC[C@]2(C(=O)NCC(=O)O)CC[C@]3(C)C(CCC4[C@@]5(C)Cc6c([nH]c7ccc(Cl)cc67)C(C)(C)C5CC[C@]43C)C12 (stereo partly shown) , would its reported Specific Index (SI) for cell lines A549 be below 2?
Reply text: TRUE

Inquiry: Given the entry "C=C(C)[C@@H]1CC[C@]2(C(=O)O)CC[C@]3(C)[C@H](CC[C@@H]4[C@@]5(C)Cc6c([nH]c7ccccc67)C(C)(C)[C@@H]5CC[C@]43C)[C@@H]12" , would its reported Specific Index (SI) for cell lines A549 be below 2?
Reply text: TRUE
